Target: T1, human LILRB5 (human, UniProt O75023 24-590)
T1 construct: Over-expressed on CHO-s cells; also called hLILRB5
T1 sequence (O75023 24-590 P542R limits assumed): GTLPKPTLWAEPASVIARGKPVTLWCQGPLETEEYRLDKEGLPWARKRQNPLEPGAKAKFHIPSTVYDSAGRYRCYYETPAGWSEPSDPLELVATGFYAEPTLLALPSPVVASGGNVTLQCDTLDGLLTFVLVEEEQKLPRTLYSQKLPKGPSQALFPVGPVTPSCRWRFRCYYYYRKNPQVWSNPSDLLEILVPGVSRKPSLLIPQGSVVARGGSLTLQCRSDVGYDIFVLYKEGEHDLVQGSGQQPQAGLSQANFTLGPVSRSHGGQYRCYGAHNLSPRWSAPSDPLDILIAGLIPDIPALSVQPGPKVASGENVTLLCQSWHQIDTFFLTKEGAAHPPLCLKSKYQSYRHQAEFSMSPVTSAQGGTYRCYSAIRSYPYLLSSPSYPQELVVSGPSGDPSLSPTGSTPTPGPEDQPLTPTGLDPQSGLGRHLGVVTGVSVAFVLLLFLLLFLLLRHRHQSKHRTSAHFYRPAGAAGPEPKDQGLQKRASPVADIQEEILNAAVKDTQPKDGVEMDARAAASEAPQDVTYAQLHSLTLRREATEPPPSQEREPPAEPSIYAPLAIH
Test: flow cytometry, LILRB5 CHOs

Binder	binding (fold over iso)
J-19 (antibody, human IgG4 S228P, kappa, V domains shown, Human IgG4 chimera from a rat immunization; also called J-19.h) VH: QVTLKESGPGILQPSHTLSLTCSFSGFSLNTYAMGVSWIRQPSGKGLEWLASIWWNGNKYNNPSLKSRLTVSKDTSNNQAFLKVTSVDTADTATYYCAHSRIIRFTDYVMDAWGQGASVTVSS VL: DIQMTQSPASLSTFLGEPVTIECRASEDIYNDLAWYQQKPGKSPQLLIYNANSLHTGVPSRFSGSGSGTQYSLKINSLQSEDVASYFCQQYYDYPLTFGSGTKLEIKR	1.19 fold over iso
J-17 (antibody, human IgG4 S228P, kappa, V domains shown, Human IgG4 chimera of murine origin; also called J-17.h) VH: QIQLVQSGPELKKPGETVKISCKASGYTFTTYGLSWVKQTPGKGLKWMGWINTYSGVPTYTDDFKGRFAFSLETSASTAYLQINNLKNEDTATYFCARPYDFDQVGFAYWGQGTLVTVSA VL: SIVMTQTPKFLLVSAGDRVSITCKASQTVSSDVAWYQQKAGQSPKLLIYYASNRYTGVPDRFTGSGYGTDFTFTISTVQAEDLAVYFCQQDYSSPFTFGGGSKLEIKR	1.03 fold over iso
J-03 (antibody, human IgG4 S228P, kappa, V domains shown, Human IgG4 chimera of murine origin) VH: QVQLQQSGAELVRPGASVTLSCKASGYKFTDYEMHWVKQTPVHGLEWIGAIDPETNGTAYNKKFKGKAILTADKSSSTAYMELRSLTSEDSAVYYCTRGDYDFSAWFAYWGQGTLVTVSA VL: DIVLTQSPASLAVSLGQRATISCRASESVDNYDISFMHWYQQKPGQPPKLLIYRASNLESGIPARFSGSGSRTDFTLTINPVETDDVATYYCQQSNKDPRTFGGGTKLEIKR	1 fold over iso
